Header: pKi / Carbonic anhydrase 9 (Homo sapiens) / multiple publications
pKi: −log10 of the molar value.
assay.endpoint: pKi

smiles.text: COc1cc(Br)c(C[C@@H]2C[C@H]2C(=O)O)cc1OC
comparison.operator: =
numeric.readout: 5.01
--
smiles.text: COc1ccc(-c2nccc(OCc3cn(-c4ccc(S(N)(=O)=O)cc4)nn3)n2)cc1
comparison.operator: =
numeric.readout: 7.29
--
smiles.text: C/C(=N\NC(N)=S)c1nnn(-c2ccc(F)cc2)c1C
comparison.operator: <
numeric.readout: 4.00
--
smiles.text: C/C(=N\NC(N)=S)c1nnn(-c2ccc(C(=O)O)cc2)c1C
comparison.operator: <
numeric.readout: 4.00
--
smiles.text: NS(=O)(=O)c1ccc(-n2nc(C(=O)N/N=C3\C(=O)Nc4ccc(Cl)cc43)cc2-c2ccccc2)cc1
comparison.operator: =
numeric.readout: 8.13
--
smiles.text: CC(=O)c1ccc(NC(=O)NNC(=O)c2ccc(S(N)(=O)=O)cc2)cc1
comparison.operator: =
numeric.readout: 8.08
--
smiles.text: CCCCn1c(-c2ccc(S(=O)(=O)c3ccc(Cl)cc3)cc2)n[nH]c1=S
comparison.operator: =
numeric.readout: 4.01
--
smiles.text: NS(=O)(=O)c1nnc(/N=C/c2ccccc2/C=N/c2nnc(S(N)(=O)=O)s2)s1
comparison.operator: =
numeric.readout: 8.24
--
smiles.text: Cc1cc(S(N)(=O)=O)c(S(=O)(=O)CC(=O)NN)cc1Cl
comparison.operator: =
numeric.readout: 5.84
--
smiles.text: O=C(O)c1cc(-c2ccc(O)cc2)n[nH]1
comparison.operator: <
numeric.readout: 4.30
--
smiles.text: COc1cccc(C=O)c1OCc1cn(CCCOc2ccc3ccc(=O)oc3c2)nn1
comparison.operator: =
numeric.readout: 5.93
--
smiles.text: NS(=O)(=O)c1ccc(C(=O)N/N=C/c2ccccc2O)cc1
comparison.operator: =
numeric.readout: 7.72
